Assay: qHTS Assay for Inhibitors of Hepatitis C Virus (HCV)
Settings: Huh7.5.1 HCVcc-Cre infection, luciferase reporter, 44 h; series mostly up to 41.8 µM
Out of some 340,000 compounds screened, about 12,000 (3.5%) were called active. About 18% were inconclusive and are not listed. The call rests on the fitted dose curve; in most records, active means well fitted inhibition curve with a large enough effect; inconclusive means small, poorly fitted or top-dose-only effect, or another doubt; inactive means no such curve, though single readings can be large or run the other way. Many of the other results were omitted from the sample, so actives are more common in it than they were.
Use one of these outcomes when replying: Y (active), N (inactive)

Use these answered entries as a reference point.
O=C(Nc1cc2c3c(c1)CC(=O)N3CCC2)c1ccccc1F : N
CN(CC#CCC(c1ccccc1)c1ccccc1)C(C)(C)C : Y
COc1cc2c(cc1OC)C(c1ccc(C)o1)CC(=O)N2 (configuration not stated) : N
Cc1ccc2c(c1)c1ncn(Cc3ccc(F)cc3)c(=O)c1n2C : N
O=C(NCc1ccccc1Cl)c1ccc2c(=O)n(CC3CCCO3)c(=S)[nH]c2c1 (configuration not stated) : Y

Can you look up the reported call for COc1ccc(S(=O)(=O)N2CCOCC2)cc1NC(=O)CC1CC2CCC1C2 (configuration not stated) for me?
N

So what was the verdict on Cn1c(=O)cc(SCC(=O)N2CCN(C(=O)c3ccco3)CC2)c2ccccc21 in this test?
N

Write down the call the test reported for this molecule. Item: CCOC(=O)c1sc(=NC(=O)c2ccc(Br)cc2)n(C)c1C
N

What outcome does the record of this test show for Cc1ccccc1NC(=O)Cn1c(=O)n(CC2CCCO2)c(=O)c2ccccc21 (configuration not stated) ?
N

Which result was noted for this molecule in the test: O=C(NCc1ccccc1Cl)C1CCCO1 (configuration not stated)
N

Hi, sorry to bother you, what did the test record for Cc1nc2ccc(N)nc2nc1C ?
N

Short answer needed: outcome of this test for O=C(NC1CCCCC1)c1ccc2c(=O)n(CC3CCCO3)c(=O)[nH]c2c1 (configuration not stated) ?
N

Answer briefly: the call reported for Cc1noc(C)c1S(=O)(=O)N(C)C[C@H]1Oc2c(NC(=O)Nc3ccc4c(c3)OCO4)cccc2C(=O)N([C@H](C)CO)C[C@@H]1C in this assay.
N

Returns: the outcome recorded for CCC(CO)Oc1cc(NC(=O)c2cccc(F)c2)c2ncn(C(C)C)c2c1 (configuration not stated) in this assay.
Y

Name the outcome recorded for COc1ccc(C(C)(C)C)cc1NC(=O)CCN1C(=O)C2CCCCC2C1=O (configuration not stated) in the assay.
N

For O=C(Nc1cccc(NC(=O)c2cccc(F)c2)c1)c1ccccc1 , which call appears in the assay record?
N

// param item: CC(C)(C)N(CC#CCC(O)(c1ccccc1)C1CCCC1)CCO (configuration not stated) ; yields the recorded call
N

// return assay outcome for O=C(CNC(=O)c1ccc(F)cc1)c1ccccc1
N

Could you kindly confirm the outcome this assay logged for COc1ccccc1-c1nn(Cc2ccccc2)cc1C(=O)N1CCN(c2ncccn2)CC1 ?
N

Please let me know the test result on file for COc1cccc(C(=O)NNC(=O)c2cccc(F)c2)c1 .
N

Called result for CCN(C(=O)CSc1nnnn1-c1ccc(OC)cc1)C1CCS(=O)(=O)C1 (configuration not stated)
N

I would be grateful if you could indicate the recorded call for CCOC(=O)C1=C(C)Nc2sc(C(=O)c3ccc(Br)cc3)c(N)c2C1c1ccc(C(=O)OC)cc1 (configuration not stated) .
Y
